Where do these numbers come from? They come from patent US20230092890A1.

- TARGET_SYSTEM: HDAC6 human recombinant (Homo sapiens, UniProt Q9UBN7)
- Construct: purchased Calbiochem 382180
- Sequence (Q9UBN7 whole entry): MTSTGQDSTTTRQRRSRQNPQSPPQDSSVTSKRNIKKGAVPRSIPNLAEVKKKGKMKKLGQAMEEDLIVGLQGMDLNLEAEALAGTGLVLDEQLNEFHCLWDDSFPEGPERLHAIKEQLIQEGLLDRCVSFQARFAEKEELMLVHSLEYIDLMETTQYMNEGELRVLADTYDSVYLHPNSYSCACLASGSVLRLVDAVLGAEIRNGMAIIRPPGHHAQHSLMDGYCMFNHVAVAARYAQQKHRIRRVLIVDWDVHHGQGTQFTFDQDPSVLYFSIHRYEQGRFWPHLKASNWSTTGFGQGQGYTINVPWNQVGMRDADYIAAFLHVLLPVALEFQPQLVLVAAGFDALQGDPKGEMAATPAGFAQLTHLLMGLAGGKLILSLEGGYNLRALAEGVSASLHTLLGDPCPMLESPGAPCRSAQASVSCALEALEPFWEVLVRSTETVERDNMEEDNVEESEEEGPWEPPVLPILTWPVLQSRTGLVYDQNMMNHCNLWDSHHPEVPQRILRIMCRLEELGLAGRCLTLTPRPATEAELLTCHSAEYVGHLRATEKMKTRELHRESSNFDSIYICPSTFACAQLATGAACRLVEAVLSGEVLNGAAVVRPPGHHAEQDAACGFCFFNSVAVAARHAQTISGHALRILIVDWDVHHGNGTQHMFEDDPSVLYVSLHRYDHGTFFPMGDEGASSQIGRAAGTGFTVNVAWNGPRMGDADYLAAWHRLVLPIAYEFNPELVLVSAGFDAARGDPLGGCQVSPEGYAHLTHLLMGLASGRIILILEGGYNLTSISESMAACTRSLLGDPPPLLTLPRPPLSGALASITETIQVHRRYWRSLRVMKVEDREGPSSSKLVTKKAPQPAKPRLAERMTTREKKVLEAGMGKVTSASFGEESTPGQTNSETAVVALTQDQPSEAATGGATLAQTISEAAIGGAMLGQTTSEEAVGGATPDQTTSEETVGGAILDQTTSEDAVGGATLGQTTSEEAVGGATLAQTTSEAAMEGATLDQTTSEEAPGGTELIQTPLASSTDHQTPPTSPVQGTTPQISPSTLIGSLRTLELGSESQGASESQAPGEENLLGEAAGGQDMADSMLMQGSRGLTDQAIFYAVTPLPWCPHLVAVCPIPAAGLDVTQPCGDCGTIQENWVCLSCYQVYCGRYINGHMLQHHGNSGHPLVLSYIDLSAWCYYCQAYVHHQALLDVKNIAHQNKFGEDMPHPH
- METHOD_SUMMARY: HDAC enzyme activity inhibition (in vitro), HDAC6 assay
- Format: biochemical
- CONDITION_DESCRIPTION: samples at 0.1, 1, 10, 100 and 1000 nM; 37° C. 60 minutes; fluorescence Ex 390, Em 460; read-out: HDAC6 IC50
Each entry below carries its recorded IC50.
API: value field is a number in nM; no unit string.

Some entries whose results are on file:
CN1CCC(n2c(=O)n(Cc3ccc(-c4nnc(C(F)F)o4)cn3)c3cc(F)c(-c4ccccc4F)cc32)CC1 [Compound 152] | 34
O=c1n(Cc2ccc(-c3nnc(C(F)F)o3)cn2)c2cc(F)c(F)cc2n1C1CCN(C2COC2)CC1 [Compound 84] | 36
CN1CCC(c2ccc3c(c2)oc(=O)n3Cc2ccc(-c3nnc(C(F)F)o3)cn2)CC1 [Compound 309] | 53
O=c1n(Cc2ccc(-c3nnc(C(F)F)o3)cn2)c2cc(F)c(-c3cccnc3)cc2n1[C@H]1CCCN(C2COC2)C1 [Compound 297] | 10
O=c1n(Cc2ccc(-c3nnc(C(F)F)o3)cn2)c2ccccc2n1C1CCN(C2COC2)CC1 [Compound 78] | 79
CN1CCN(c2cc(-c3cc4oc(=O)n(Cc5ccc(-c6nnc(C(F)F)o6)cn5)c4cc3F)ccn2)CC1 [Compound 364] | 26

As a next step, examine the molecule that follows.
API: value(readout=IC50, system=HDAC6 human recombinant (Homo sapiens, UniProt Q9UBN7)) for record CS(=O)(=O)N1CCC(n2c(=O)n(Cc3ccc(-c4nnc(C(F)F)o4)cc3)c3ccc(Cl)cc32)CC1 [Compound 202]
139

====

- TARGET_SYSTEM: HDAC6 human recombinant (Homo sapiens)
- Construct: purchased Calbiochem 382180
- METHOD_SUMMARY: HDAC enzyme activity inhibition (in vitro), HDAC6 assay
- Format: biochemical
- CONDITION_DESCRIPTION: samples at 0.1, 1, 10, 100 and 1000 nM; 37° C. 60 minutes; fluorescence Ex 390, Em 460; read-out: HDAC6 IC50
Reported values of log10 IC50 for individual entries
Values are log10 of IC50 in nM.

Solved cases (3 shown):
CC(=O)N1CCC(n2c(=O)n(Cc3ccc(-c4nnc(C(F)F)o4)cn3)c3cc(Cl)ccc32)CC1 [Compound 215] | 1.30
CN1CCC(n2c(=O)n(Cc3ccc(-c4nnc(C(F)F)o4)cn3)c3ncccc32)CC1 [Compound 107] | 2.24
CN1CCC(n2c(=O)n(Cc3ccc(-c4nnc(C(F)F)o4)cn3)c3cc(F)c(-c4ccnn4C)cc32)CC1 [Compound 249] | 1.26

Which measured log10 IC50 value corresponds to Cn1nccc1-c1ccc2c(c1)n(C)c(=O)n2Cc1ccc(-c2nnc(C(F)F)o2)cn1 [Compound 222] ?
1.32

Fill in the blank: the reported log10 IC50 of O=c1n(Cc2ccc(-c3nnc(C(F)F)o3)cc2F)c2ccccc2n1C1CCOCC1 [Compound 34] is ____.
2.37

Name the reported log10 IC50 value associated with the compound Cn1c(=O)n(Cc2ccc(-c3nnc(C(F)F)o3)cn2)c2cc(F)c(-c3cccnc3)cc21 [Compound 165]
1.00

log10 IC50 lookup needed for CC(C)(C)OC(=O)N1CCN(c2ccc(-c3cc4oc(=O)n(Cc5ccc(-c6nnc(C(F)F)o6)cn5)c4cc3F)cn2)CC1 [Compound 344] , thanks.
2.83

Data request, read-out log10 IC50, for O=c1n(Cc2ccc(-c3nnc(C(F)F)o3)cn2)c2cc(F)c(N3CCN(Cc4cccnc4)CC3)cc2n1C1COC1 [Compound 324]
1.62

Requested read-out: log10 IC50. Entry: CC(C)(C)OC(=O)N1CCC(c2ccc3c(c2)oc(=O)n3Cc2ccc(-c3nnc(C(F)F)o3)cn2)CC1 [Compound 307]
2.60

# lookup: log10 IC50 of O=c1oc2cc(-c3cnn(C4CCN(CC(F)(F)F)CC4)c3)c(F)cc2n1Cc1ccc(-c2nnc(C(F)F)o2)cn1 [Compound 363]
1.88

For CN1CCC(n2c(=O)n(Cc3ccc(-c4nnc(C(F)F)o4)cn3)c3ccc(C4CCN(S(C)(=O)=O)CC4)cc32)CC1 [Compound 198] , what is its reported log10 IC50?
2.29

====

A collection of molecules and their measured log10 IC50
- TARGET_SYSTEM: HDAC6 human recombinant (Homo sapiens, UniProt Q9UBN7)
- Construct: purchased Calbiochem 382180
- METHOD_SUMMARY: HDAC enzyme activity inhibition (in vitro), HDAC6 assay
- Type: biochemical
- CONDITION_DESCRIPTION: samples at 0.1, 1, 10, 100 and 1000 nM; 37° C. 60 minutes; fluorescence Ex 390, Em 460; read-out: HDAC6 IC50
Transform log10 | Measure IC50 | Unit nM

In the examples that follow, each entry is paired with its recorded log10 IC50.
O=c1n(Cc2ccc(-c3nnc(C(F)F)o3)cn2)c2cc(Cl)ccc2n1C1CCN(CC(F)(F)F)CC1 | 1.83
O=c1n(Cc2ccc(-c3nnc(C(F)F)o3)cc2)c2ccccc2n1C1CC2(COC2)C1 | 2.32
CN1CCC(n2c(=O)n(Cc3ccc(-c4nnc(C(F)F)o4)cc3)c3cc(Cl)c(Cl)cc32)CC1 | 1.49
O=c1n(Cc2ccc(-c3nnc(C(F)F)o3)cn2)c2cc(F)c(-c3cccnc3)cc2n1C1CCN(CC(F)(F)C(F)F)CC1 | 1.66
CN1CCC(n2c(=O)n(Cc3ccc(-c4nnc(C(F)F)o4)cc3)c3cc(Br)ccc32)CC1 | 1.46
CN1CC(n2c(=O)n(Cc3ccc(-c4nnc(C(F)F)o4)cn3)c3cc(F)c(-c4cccnc4)cc32)C1 | 1.11

Now let's try a different one.
Request: log10 IC50, test system HDAC6 human recombinant (Homo sapiens, UniProt Q9UBN7), entry O=c1n(Cc2ccc(-c3nnc(C(F)F)o3)cn2)c2cc(Cl)ccc2n1C1CCN(C2COC2)CC1
1.43

====

- TARGET_SYSTEM: HDAC6 human recombinant (Homo sapiens)
- Construct: purchased Calbiochem 382180
- METHOD_SUMMARY: HDAC enzyme activity inhibition (in vitro), HDAC6 assay
- Format: biochemical
- CONDITION_DESCRIPTION: samples at 0.1, 1, 10, 100 and 1000 nM; 37° C. 60 minutes; fluorescence Ex 390, Em 460; read-out: HDAC6 IC50
READOUT: pIC50
As a rule, pIC50 stands for the negative log10 of the concentration, concentration in M.

// below: answered molecules
O=c1oc2cc(-c3ccnc(N4CCNCC4)c3)c(F)cc2n1Cc1ccc(-c2nnc(C(F)F)o2)cn1 | 7.74
O=c1n(Cc2ccc(-c3nnc(C(F)F)o3)cn2)c2cc(F)c(N3CCN(C4CCC4)CC3)cc2n1C1COC1 | 7.39
CC(=O)N1CCC(n2c(=O)n(Cc3ccc(-c4nnc(C(F)F)o4)cc3F)c3cc(F)c(F)cc32)CC1 | 7.30
CC(C)N1CCC(n2c(=O)n(Cc3ccc(-c4nnc(C(F)F)o4)cn3)c3cc(Cl)ccc32)CC1 | 7.82
CN1CCC(n2c(=O)n(Cc3ccc(-c4nnc(C(F)F)o4)cn3)c3ccc(-c4ccccc4F)cc32)CC1 | 7.70

# value lookup — system HDAC6 human recombinant (Homo sapiens), readout pIC50, item O=c1n(Cc2ccc(-c3nnc(C(F)F)o3)cn2)c2cc(F)c(-c3cn[nH]c3)cc2n1[C@@H]1CCCN(C2COC2)C1
8.30

Recall the recorded pIC50 for CN1CCC(n2c(=O)n(Cc3ccc(-c4nnc(C(F)F)o4)cn3)c3ccccc32)C1 (centres unmarked) with HDAC6 human recombinant (Homo sapiens) and state it.
6.69

Form field: pIC50 recorded for O=c1n(Cc2ccc(-c3nnc(C(F)F)o3)cc2F)c2cc(F)ccc2n1C1CCN(C2CCC2)CC1 with HDAC6 human recombinant (Homo sapiens) (enter value)
7.15

Test system HDAC6 human recombinant (Homo sapiens); read-out pIC50; what value for CN1CC(n2c(=O)n(Cc3ccc(-c4nnc(C(F)F)o4)cc3F)c3ccccc32)C1 ?
6.96

State its pIC50 on HDAC6 human recombinant (Homo sapiens): O=c1n(Cc2ccc(-c3nnc(C(F)F)o3)cc2F)c2cc(F)ccc2n1C1CCS(=O)(=O)CC1
7.43

Hello, I am looking for reported pIC50 with HDAC6 human recombinant (Homo sapiens) for CN1CCC(n2c(=O)n(Cc3ccc(-c4nnc(C(F)F)o4)cc3F)c3cc(-c4cccc(F)c4)ccc32)CC1 . Could you help?
5.88

What pIC50 appears in the records for this molecule with HDAC6 human recombinant (Homo sapiens)? CC(=O)N1CCC(n2c(=O)n(Cc3ccc(-c4nnc(C(F)F)o4)cn3)c3cc(F)ccc32)CC1
7.51

Report pIC50 for CN1CCC(n2c(=O)n(Cc3ccc(-c4nnc(C(F)F)o4)cn3)c3cc(F)c(-c4cn(C(=O)OC(C)(C)C)c5ccc(Cl)cc45)cc32)CC1 tested on HDAC6 human recombinant (Homo sapiens).
6.33

Observed pIC50 on HDAC6 human recombinant (Homo sapiens) for CN1CC(n2c(=O)n(Cc3ccc(-c4nnc(C(F)F)o4)cn3)c3cc(F)c(-c4cccc5[nH]ccc45)cc32)C1 , please.
7.92
